# TEST_NAME: Tmax in BALB/c mouse at 30 mg/kg, po administered as single dose
# Format: ADME, organism-based
# Set-up: dose 30 mg/kg, route oral
# EXPERIMENTAL_CONDITIONS: in vivo
METRIC: Tmax (min)

| MOLECULE_SMILES | METRIC | VALUE_OBSERVED |
| --- | --- | --- |
| COc1ncnc(Cn2cc(C(=O)NCCF)c3ncc(C)cc32)c1C | Tmax | 15 |

----------
# TEST_NAME: Cmax in BALB/c mouse at 30 mg/kg, po administered as single dose
# Format: ADME, organism-based
# Design: dose 30 mg/kg, route oral
# EXPERIMENTAL_CONDITIONS: in vivo

| MOLECULE_SMILES | READOUT_UNITS | Cmax |
| --- | --- | --- |
| COc1ncnc(Cn2cc(C(=O)NCCF)c3ncc(C)cc32)c1C | µM | 5.24 |

----------
# TEST_NAME: AUC (infinity) in BALB/c mouse at 100 mg/kg, po administered as single dose
# Format: ADME, organism-based
# Parameters: time infinity, dose 100 mg/kg, route oral
# EXPERIMENTAL_CONDITIONS: plasma

| MOLECULE_SMILES | AUC(0-inf) [µM·h] |
| --- | --- |
| COc1cnc2c(C(=O)NCCO)cn(Cc3ncnc(N(C)C)c3C)c2c1 | 57 |
| COc1cnc2c(C(=O)NCCO)cn(Cc3ncnc(OC)c3C)c2c1 | 286 |
| Cc1cnc2c(C(=O)NCCO)cn(Cc3ncnc(N(C)C)c3C)c2c1 | 106 |

----------
Reported microsomal CLint values for a set of molecules
# TEST_NAME: Intrinsic clearance in mouse liver microsomes
# Format: ADME
# EXPERIMENTAL_CONDITIONS: read-out: CLH
METRIC: microsomal CLint

| MOLECULE_SMILES | VALUE_OBSERVED |
| --- | --- |
| COc1cnc2c(C(=O)NCC(F)F)cn(Cc3ncnc(OC)c3C)c2c1 | 106 µL/min/mg |
| COc1ncnc(Cn2cc(C(=O)NCCF)c3ncc(C)cc32)c1C | 107 µL/min/mg |
| COc1cnc2c(C(=O)NCCF)cn(Cc3ncnc(OC)c3C)c2c1 | 129 µL/min/mg |
| Cc1cnc2c(C(=O)NCCO)cn(Cc3ncnc(N(C)C)c3C)c2c1 | 38 µL/min/mg |
| COc1cnc2c(C(=O)NCCF)cn(Cc3ncnc(N(C)C)c3C)c2c1 | 50 µL/min/mg |
| Cc1cnc2c(C(=O)NCCF)cn(Cc3ncc(C)nc3C)c2c1 | 22 µL/min/mg |
| Cc1cnc2c(C(=O)NCCO)cn(Cc3ncnc(OC(F)F)c3C)c2c1 | 26 µL/min/mg |
| COc1cnc2c(C(=O)NCC(F)F)cn(Cc3ncnc(N(C)C)c3C)c2c1 | > 130 µL/min/mg |
| COc1ncnc(Cn2cc(C(=O)NCC(F)F)c3ncc(C)cc32)c1C | 77 µL/min/mg |
| COc1cnc2c(C(=O)NCCO)cn(Cc3ncnc(OC)c3C)c2c1 | < 24 µL/min/mg |
| COc1cnc2c(C(=O)NCCO)cn(Cc3ncnc(N(C)C)c3C)c2c1 | 26 µL/min/mg |

----------
# TEST_NAME: Clearance in po dosed rat
# Type: ADME, organism-based
# EXPERIMENTAL_CONDITIONS: in vivo

| MOLECULE | CL/F |
| --- | --- |
| COc1cnc2c(C(=O)NCCO)cn(Cc3ncnc(OC)c3C)c2c1 | 12 mL/min/kg |
| COc1cnc2c(C(=O)NCCO)cn(Cc3ncnc(N(C)C)c3C)c2c1 | 16 mL/min/kg |
| COc1ncnc(Cn2cc(C(=O)NCCO)c3ncc(C)cc32)c1C [TBA-7371] | 27 mL/min/kg |
| Cc1cnc2c(C(=O)NCCO)cn(Cc3ncnc(OC(F)F)c3C)c2c1 | 48 mL/min/kg |
| Cc1cnc2c(C(=O)NCCO)cn(Cc3ncnc(N(C)C)c3C)c2c1 | 24 mL/min/kg |

----------
Reported MIC values for a set of compounds
# System: Mycobacterium tuberculosis
# Format: functional, H37Rv ATCC 27294, THP-1
# EXPERIMENTAL_CONDITIONS: Mycobacterium tuberculosis, H37Rv ATCC 27294; read-out: MIC

| MOLECULE_SMILES | BOUND_OPERATOR | MIC / µM |
| --- | --- | --- |
| COc1ncnc(Cn2cc(C(=O)NCCF)c3ncc(C4CC4)cc32)c1C | = | 3.12 |
| Cc1cnc2c(C(=O)NCCF)cn(Cc3ncc(C)nc3C)c2c1 | < | 0.39 |
| COc1ncc(F)cc1Cn1cc(C(=O)NC[C@H](C)F)c2ncc(C)cc21 | < | 0.39 |
| Cc1cnc2c(C(=O)NCCF)cn(Cc3nccc(OCC(F)(F)F)c3C)c2c1 | = | 1.56 |
| COc1cnc2c(C(=O)NCC(F)F)cn(Cc3ncnc(OC)c3C)c2c1 | < | 0.39 |

----------
Reported Papp A→B values for a set of compounds
# TEST_NAME: Permeability across apical to basolateral side in human Caco2 cells
# Format: ADME, cell-based
# EXPERIMENTAL_CONDITIONS: Caco-2, read-out: permeability

| MOLECULE_SMILES | READOUT_UNITS | Papp A→B |
| --- | --- | --- |
| COc1ncnc(Cn2cc(C(=O)NCC(F)F)c3ncc(C)cc32)c1C | ×10⁻⁶ cm/s | 24 |
| COc1cnc2c(C(=O)NCCO)cn(Cc3ncnc(OC)c3C)c2c1 | ×10⁻⁶ cm/s | 11 |
| Cc1cnc2c(C(=O)NCCO)cn(Cc3ncnc(N(C)C)c3C)c2c1 | ×10⁻⁶ cm/s | 5 |
| Cc1cnc2c(C(=O)NCCO)cn(Cc3ncnc(OC(F)F)c3C)c2c1 | ×10⁻⁶ cm/s | 13 |
| COc1cnc2c(C(=O)NCCO)cn(Cc3ncnc(N(C)C)c3C)c2c1 | ×10⁻⁶ cm/s | 3 |

----------
# TEST_NAME: AUC in Mycobacterium tuberculosis H37Rv ATCC 27294 infected Wistar rat infection model at 100 mg/kg, po
# Type: ADME, organism-based
# Parameters: dose 100 mg/kg, route oral
# EXPERIMENTAL_CONDITIONS: Wistar, in vivo
METRIC: AUC (µM·h)

| MOLECULE_SMILES | METRIC | READOUT_UNITS | VALUE_OBSERVED |
| --- | --- | --- | --- |
| COc1ncnc(Cn2cc(C(=O)NCC(F)F)c3ncc(C)cc32)c1C | AUC | µM·h | 23 |

----------
# TEST_NAME: Octanol-water partition coefficient, log D of the compound at pH 7.4 by shake flask method
# Format: physicochemical
Reported logD values for a set of molecules

| MOLECULE_SMILES | logD |
| --- | --- |
| COc1cnc2c(C(=O)NCCO)cn(Cc3ncnc(OC)c3C)c2c1 | 1.6 |
| COc1cnc2c(C(=O)NCC(F)F)cn(Cc3ncnc(OC(F)F)c3C)c2c1 | 2.4 |
| COc1cnc2c(C(=O)NCCF)cn(Cc3ncnc(OC(F)F)c3C)c2c1 | 2.2 |
| Cc1cnc2c(C(=O)NCCO)cn(Cc3ncnc(N(C)C)c3C)c2c1 | 1.8 |

----------
# TEST_NAME: Half life in BALB/c mouse at 50 mg/kg, po administered as single dose
# Type: ADME, organism-based
# Set-up: dose 50 mg/kg, route oral
# EXPERIMENTAL_CONDITIONS: in vivo

| MOLECULE_SMILES | READOUT_UNITS | half-life |
| --- | --- | --- |
| COc1ncnc(Cn2cc(C(=O)NCCO)c3ncc(C)cc32)c1C | min | 42 |

----------
# TEST_NAME: Permeability across basolateral to apical side in human Caco2 cells
# Assay type: ADME, cell-based
# EXPERIMENTAL_CONDITIONS: Caco-2, read-out: permeability
METRIC: Papp B→A (×10⁻⁶ cm/s)

| MOLECULE_SMILES | READOUT_UNITS | VALUE_OBSERVED |
| --- | --- | --- |
| COc1cnc2c(C(=O)NCCO)cn(Cc3ncnc(OC)c3C)c2c1 | ×10⁻⁶ cm/s | 31 |
| COc1cnc2c(C(=O)NCCO)cn(Cc3ncnc(N(C)C)c3C)c2c1 | ×10⁻⁶ cm/s | 39 |
| Cc1cnc2c(C(=O)NCCO)cn(Cc3ncnc(OC(F)F)c3C)c2c1 | ×10⁻⁶ cm/s | 23 |
| COc1ncnc(Cn2cc(C(=O)NCCF)c3ncc(C)cc32)c1C | ×10⁻⁶ cm/s | 18 |
| COc1ncnc(Cn2cc(C(=O)NCC(F)F)c3ncc(C)cc32)c1C | ×10⁻⁶ cm/s | 9 |
| Cc1cnc2c(C(=O)NCCO)cn(Cc3ncnc(N(C)C)c3C)c2c1 | ×10⁻⁶ cm/s | 37 |

Origin of measurements: ChEMBL document CHEMBL3286390
